Would you mind telling me the reported z-score of each entry?
assay: qHTS for identification of novel therapeutic agents for treatment of microphthalmiaassociated transcription factor (MiT) renal cell carcinoma (RCC) (AID 1963991); conditions: TFE3-RCC UOK109 viability, CellTiter-Glo, 48 h; measured here: UOK109 Z-AUC; stronger effect = lower value;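 also: curves scaled with 100% = DMSO viability and 0% = empty wells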
Inconclusive results are not listed.
Answers are plain numbers.

Answered cases to consult:
- molecule: "O=C(O)c1cccnc1Nc1cccc(C(F)(F)F)c1"
  z-score: 0.327
- molecule: "Nc1cc(C(Cl)=C(Cl)Cl)c(S(N)(=O)=O)cc1S(N)(=O)=O"
  z-score: 1.83
- molecule: "Oc1ccc(OCc2ccccc2)cc1"
  z-score: 1.11

State the recorded z-score for every item in the following list.
1. CCOC(=O)C(C)Oc1cccc2c(=O)n(CC(=O)Nc3ccc4c(c3)OCCO4)ccc12 (stereo not given)
2. CCCCc1ccc2nc(NC(=O)OC)[nH]c2c1
3. C[C@H](Cn1cnc2c(N)ncnc21)OCP(=O)(O)O
4. O=C(O)c1cn(-c2ccc(F)cc2)c2cc(N3CCNCC3)c(F)cc2c1=O
5. CC1=C(C(=O)O)N2C(=O)[C@@H](NC(=O)[C@H](N)C3=CCC=CC3)[C@H]2SC1
6. CNC[C@@H](O)[C@@H](O)[C@H](O)[C@H](O)CO
7. CC[C@]1(O)C[C@H]2CN(CCc3c([nH]c4ccccc34)[C@@](C(=O)OC)(c3cc4c(cc3OC)N(C=O)[C@H]3[C@@](O)(C(=O)OC)[C@H](OC(C)=O)[C@]5(CC)C=CCN6CC[C@]43[C@@H]65)C2)C1

result:
1: 0.811; 2: -1.8; 3: 0.368; 4: 0.863; 5: 1.56; 6: 1.02; 7: -0.827

Hey, just so you know, these numbers are from PubChem BioAssay (NCATS).
